Data provenance: patent US20250353848A1

Test system: hPAD4 enzyme (Homo sapiens, UniProt Q9UM07)
Sequence (Q9UM07 whole entry): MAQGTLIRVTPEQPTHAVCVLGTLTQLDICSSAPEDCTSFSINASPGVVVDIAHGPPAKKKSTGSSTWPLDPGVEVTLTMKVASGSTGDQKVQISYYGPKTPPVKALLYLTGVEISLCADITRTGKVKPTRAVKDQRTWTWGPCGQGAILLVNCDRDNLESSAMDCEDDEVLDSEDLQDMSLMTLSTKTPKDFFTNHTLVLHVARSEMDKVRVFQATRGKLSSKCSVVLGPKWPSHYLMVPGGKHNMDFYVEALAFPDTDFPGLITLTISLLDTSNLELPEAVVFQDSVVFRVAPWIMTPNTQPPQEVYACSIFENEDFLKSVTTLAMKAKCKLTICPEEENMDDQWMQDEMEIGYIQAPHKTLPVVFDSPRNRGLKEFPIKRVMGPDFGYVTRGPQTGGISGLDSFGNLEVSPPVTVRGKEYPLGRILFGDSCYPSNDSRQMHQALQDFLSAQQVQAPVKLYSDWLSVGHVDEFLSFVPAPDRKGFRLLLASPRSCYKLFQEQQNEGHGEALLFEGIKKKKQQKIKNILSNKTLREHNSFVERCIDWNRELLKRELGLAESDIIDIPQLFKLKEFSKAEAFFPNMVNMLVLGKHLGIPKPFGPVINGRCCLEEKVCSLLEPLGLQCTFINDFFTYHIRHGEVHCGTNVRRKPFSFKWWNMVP
Assay summary: RFMS Assay 1 (rapid-fire mass spectrum PAD4 inhibition assay, BAEE substrate)
Type: biochemical
Condition notes: 5 nM hPAD4 enzyme, 250 μM BAEE, 30 mins compound and enzyme preincubation at 37° C., 90 min enzyme/substrate reaction
Measured endpoint: IC50

Ask | IC50 lookup needed for `C[C@H](COc1cccc2cc(-c3nc4cc5c(nc4n3C)CCN(C[C@H](N)CF)C5=O)n(CC3CC3)c12)n1cnc(F)c1` , thanks.
Reply | ≤ 10 nM

Ask | IC50 lookup needed for `Cn1c(-c2cc3cccc(OC[C@@H]4CNC(=O)O4)c3n2CC2CC2)nc2cc3c(nc21)CCN(C[C@H](N)CF)C3=O` , thanks.
Reply | ≤ 10 nM

Ask | IC50 lookup needed for CC(Cc1cnco1)Oc1cc(F)cc2cc(-c3nc4cc5c(nc4n3C)CCN(C[C@H](N)CF)C5=O)n(CC3CC3)c12 (single isomer, unassigned) [Example 65a] , thanks.
Reply | ≤ 10 nM
